molecular target: electrophorus electricus acetylcholinesterase (eeAChE) (Electrophorus electricus); assay: biochemical; type: biochemical; details: 20 minutes incubation at 37°C; mean ± standard error of the mean; read-out: IC50 EeAChE
Sequence (O42275 24-633): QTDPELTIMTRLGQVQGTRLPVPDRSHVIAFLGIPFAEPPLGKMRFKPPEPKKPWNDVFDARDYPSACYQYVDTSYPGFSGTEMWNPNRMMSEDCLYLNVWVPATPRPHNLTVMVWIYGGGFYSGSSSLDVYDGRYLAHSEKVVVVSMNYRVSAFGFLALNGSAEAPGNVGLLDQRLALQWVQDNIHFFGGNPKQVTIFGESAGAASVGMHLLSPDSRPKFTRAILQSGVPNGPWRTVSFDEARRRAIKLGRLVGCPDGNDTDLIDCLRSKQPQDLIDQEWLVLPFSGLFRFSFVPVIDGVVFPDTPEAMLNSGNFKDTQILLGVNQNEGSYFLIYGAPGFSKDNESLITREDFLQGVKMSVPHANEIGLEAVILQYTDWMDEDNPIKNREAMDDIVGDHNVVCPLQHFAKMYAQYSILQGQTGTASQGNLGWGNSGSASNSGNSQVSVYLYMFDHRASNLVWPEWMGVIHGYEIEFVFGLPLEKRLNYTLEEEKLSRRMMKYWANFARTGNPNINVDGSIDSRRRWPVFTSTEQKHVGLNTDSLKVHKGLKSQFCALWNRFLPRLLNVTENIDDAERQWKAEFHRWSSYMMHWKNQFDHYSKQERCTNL
pIC50: −log10 of the molar value.
Entries and their measured pIC50 follow.

compound	pIC50
C#CCN(Cc1ccc(O)c2ncccc12)CC1CCN(Cc2ccccc2)CC1 [Compound 3]	4.77
C#CCN(Cc1ccc(O)c2ncccc12)C(C#N)C1CCN(Cc2ccccc2)CC1 (centres unmarked) [Compound 2]	4.84
C#CCN(CCCC1CCN(Cc2ccccc2)CC1)Cc1ccc(O)c2ncccc12 [Compound 7]	5.57
C#CCN(CCC1CCN(Cc2ccccc2)CC1)Cc1ccc(O)c2ncccc12 [Compound 5]	5.30
C#CCN(Cc1ccc(O)c2ncccc12)C(C#N)CC1CCN(Cc2ccccc2)CC1 (centres unmarked) [Compound 4]	5.26

* * *

molecular target: ratMAO-B (Rattus norvegicus); test: MAO-B inhibition, radiometric method of Fowler and Tipton (14C PEA); format: biochemical; design: MAO-A and MAO-B activities were determined in rat brain homogenate; from tissue; host or cells: rat brain homogenate per the methods
Sequence (P19643 whole entry): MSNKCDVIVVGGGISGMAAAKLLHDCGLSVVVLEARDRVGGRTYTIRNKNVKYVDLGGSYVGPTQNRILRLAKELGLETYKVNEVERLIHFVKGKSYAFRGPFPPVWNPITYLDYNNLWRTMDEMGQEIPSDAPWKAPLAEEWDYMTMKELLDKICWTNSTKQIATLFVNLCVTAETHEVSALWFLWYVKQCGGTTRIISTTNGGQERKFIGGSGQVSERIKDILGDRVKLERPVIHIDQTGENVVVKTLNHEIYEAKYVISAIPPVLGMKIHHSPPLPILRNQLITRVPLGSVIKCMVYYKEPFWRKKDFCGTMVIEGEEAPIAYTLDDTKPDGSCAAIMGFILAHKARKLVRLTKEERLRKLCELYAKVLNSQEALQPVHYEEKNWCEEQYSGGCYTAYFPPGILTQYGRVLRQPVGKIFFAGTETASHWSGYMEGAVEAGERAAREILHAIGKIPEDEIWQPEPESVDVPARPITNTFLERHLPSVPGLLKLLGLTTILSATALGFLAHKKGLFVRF
quantity.measured: IC50 (µM)

molecule	numeric.value
C#CCN(Cc1ccc(O)c2ncccc12)C(C#N)CCC1CCN(Cc2ccccc2)CC1 (stereo not shown) [Compound 6]	10.2

* * *

target: bovine lung SSAO (Bos taurus); construct: and bovine lung SSAO by compounds of the invention; from tissue; host or cells: bovine lung; test: Inhibition of semicarbazide sensitive amine oxidase (SSAO), radiochemical; type: biochemical; settings: bovine lung SSAO; mean ± standard error of the mean; read-out: IC50 bovineSSAO
Sequence (Q9TTK6 whole entry): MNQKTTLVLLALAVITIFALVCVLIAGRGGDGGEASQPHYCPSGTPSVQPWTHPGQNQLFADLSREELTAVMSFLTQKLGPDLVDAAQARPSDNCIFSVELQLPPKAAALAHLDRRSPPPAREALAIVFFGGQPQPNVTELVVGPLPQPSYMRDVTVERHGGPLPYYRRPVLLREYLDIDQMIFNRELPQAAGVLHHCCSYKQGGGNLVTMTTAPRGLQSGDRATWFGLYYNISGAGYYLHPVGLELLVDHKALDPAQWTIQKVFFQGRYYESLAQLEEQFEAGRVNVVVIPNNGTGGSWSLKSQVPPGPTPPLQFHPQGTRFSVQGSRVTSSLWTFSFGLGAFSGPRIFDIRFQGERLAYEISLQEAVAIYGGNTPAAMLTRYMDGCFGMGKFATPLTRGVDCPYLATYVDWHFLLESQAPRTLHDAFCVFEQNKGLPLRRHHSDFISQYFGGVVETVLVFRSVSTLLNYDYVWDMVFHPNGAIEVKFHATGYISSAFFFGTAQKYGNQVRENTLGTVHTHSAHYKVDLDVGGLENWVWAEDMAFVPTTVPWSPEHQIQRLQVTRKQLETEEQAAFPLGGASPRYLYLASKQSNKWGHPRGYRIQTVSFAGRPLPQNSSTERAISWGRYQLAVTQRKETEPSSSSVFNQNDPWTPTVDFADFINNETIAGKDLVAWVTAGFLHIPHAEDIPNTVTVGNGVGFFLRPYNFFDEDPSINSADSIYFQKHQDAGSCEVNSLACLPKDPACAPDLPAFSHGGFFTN
pIC50: −log10 of the molar value.
Readings of pIC50 for the listed molecules

molecule	value.relation.sign	pIC50
C#CCN(Cc1ccc(O)c2ncccc12)C(C#N)C1CCN(Cc2ccccc2)CC1 (centres unmarked)	=	4.75
C#CCN(CCC1CCN(Cc2ccccc2)CC1)Cc1ccc(O)c2ncccc12	=	4.40
C#CCN(Cc1ccc(O)c2ncccc12)C(C#N)CC1CCN(Cc2ccccc2)CC1 (centres unmarked)	=	5.55
C#CCN(Cc1ccc(O)c2ncccc12)CC1CCN(Cc2ccccc2)CC1	≤	4.00
C#CCN(CCCC1CCN(Cc2ccccc2)CC1)Cc1ccc(O)c2ncccc12	=	4.21

* * *

Target: ratMAO-A (Rattus norvegicus)
Sequence (P21396 1-526): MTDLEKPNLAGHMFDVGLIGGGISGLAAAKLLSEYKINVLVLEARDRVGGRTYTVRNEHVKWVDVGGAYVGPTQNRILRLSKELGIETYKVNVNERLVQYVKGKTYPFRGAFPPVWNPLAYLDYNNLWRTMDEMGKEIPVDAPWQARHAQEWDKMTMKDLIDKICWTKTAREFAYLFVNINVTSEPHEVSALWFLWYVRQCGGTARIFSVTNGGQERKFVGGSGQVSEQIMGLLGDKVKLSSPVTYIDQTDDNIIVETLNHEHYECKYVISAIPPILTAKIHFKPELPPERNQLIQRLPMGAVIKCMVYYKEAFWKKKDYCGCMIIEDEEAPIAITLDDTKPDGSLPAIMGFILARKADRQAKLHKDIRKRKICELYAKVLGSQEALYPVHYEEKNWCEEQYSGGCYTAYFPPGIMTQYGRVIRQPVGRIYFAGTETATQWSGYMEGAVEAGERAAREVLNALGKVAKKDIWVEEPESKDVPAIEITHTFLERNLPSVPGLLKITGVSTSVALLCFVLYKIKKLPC
Assay: MAO-A inhibition, radiometric method of Fowler and Tipton (14C 5-HT)
Format: biochemical
Design: MAO-A and MAO-B activities were determined in rat brain homogenate; from tissue; host or cells: rat brain homogenate per the methods

molecule	IC50
C#CCN(Cc1ccc(O)c2ncccc12)C(C#N)CCC1CCN(Cc2ccccc2)CC1 (stereo not shown)	6.16 µM
